Can you tell me bioavailability for the items I'm about to list?
- assayOverview: Oral bioavailability in Beagle dog
- Assay type: ADME, organism-based, Canis lupus familiaris
- details: in vivo

So for CC(C)NC(=O)[C@H]1CC[C@@H](n2/c(=N/C(=O)c3cc(F)cc(F)c3)[nH]c3ccc(CN4CCC(C(C)(C)O)CC4)cc32)CC1 , the logged bioavailability turned out to be 71%

So for CC(C)NC(=O)[C@H]1CC[C@@H](n2/c(=N/C(=O)c3ccc(F)cc3)[nH]c3ccc(CN4CCC(C(C)(C)O)CC4)cc32)CC1 , the logged bioavailability turned out to be 52%

----------
- assayOverview: Volume of distribution at steady state in rat
- Type: ADME, organism-based
- details: in vivo, read-out: Vdss
outcomeMeasure: Vd (L/kg)
I only need the number, in L/kg, no unit after it.

So for CC(C)NC(=O)[C@H]1CC[C@@H](n2/c(=N/C(=O)c3cc(F)cc(F)c3)[nH]c3ccc(CN4CCC(C(C)(C)O)CC4)cc32)CC1 , the logged Vd turned out to be 5.42

So for CC(C)NC(=O)[C@H]1CC[C@@H](n2/c(=N/C(=O)c3ccc(F)cc3)[nH]c3ccc(CN4CCC(C(C)(C)O)CC4)cc32)CC1 , the logged Vd turned out to be 6.4

----------
- assayOverview: Volume of distribution at steady state in Beagle dog
- Assay type: ADME, organism-based, Canis lupus familiaris
- details: in vivo, read-out: Vdss
outcomeMeasure: Vd (L/kg)
I only need the number, in L/kg, no unit after it.

So for CC(C)NC(=O)[C@H]1CC[C@@H](n2/c(=N/C(=O)c3cc(F)cc(F)c3)[nH]c3ccc(CN4CCC(C(C)(C)O)CC4)cc32)CC1 , the logged Vd turned out to be 1.82

So for CC(C)NC(=O)[C@H]1CC[C@@H](n2/c(=N/C(=O)c3ccc(F)cc3)[nH]c3ccc(CN4CCC(C(C)(C)O)CC4)cc32)CC1 , the logged Vd turned out to be 1.58
